experimental conditions: not told
Description: Effective permeability coefficient in 100% IPM membrane
Below is a list of entries, each paired with its recorded log Pe value.
Number first, unit second: that is the form wanted.

[[record]]
structure_smiles_string = "CN1CCC[C@H]1c1cccnc1"
parameter_measured = "log Pe"
result_value = "-4.23 cm/s"

[[record]]
structure_smiles_string = "Oc1ccccc1"
parameter_measured = "log Pe"
result_value = "-4 cm/s"

[[record]]
structure_smiles_string = "CC(=O)[C@H]1CC[C@H]2[C@@H]3CCC4=CC(=O)CC[C@]4(C)[C@H]3CC[C@]12C"
parameter_measured = "log Pe"
result_value = "-4.63 cm/s"

[[record]]
structure_smiles_string = "O=C(O)c1ccccc1O"
parameter_measured = "log Pe"
result_value = "-3.98 cm/s"


Request: Dear colleague, I am looking for the recorded log Pe of the following compound: Oc1ccc2ccccc2c1
Result: -4.41 cm/s

The measured values listed here are drawn from ChEMBL document CHEMBL1138041.
